# TEST TARGET: PI3-kinase p110-alpha/p85-alpha (Homo sapiens)
# Sequence (P27986 whole entry): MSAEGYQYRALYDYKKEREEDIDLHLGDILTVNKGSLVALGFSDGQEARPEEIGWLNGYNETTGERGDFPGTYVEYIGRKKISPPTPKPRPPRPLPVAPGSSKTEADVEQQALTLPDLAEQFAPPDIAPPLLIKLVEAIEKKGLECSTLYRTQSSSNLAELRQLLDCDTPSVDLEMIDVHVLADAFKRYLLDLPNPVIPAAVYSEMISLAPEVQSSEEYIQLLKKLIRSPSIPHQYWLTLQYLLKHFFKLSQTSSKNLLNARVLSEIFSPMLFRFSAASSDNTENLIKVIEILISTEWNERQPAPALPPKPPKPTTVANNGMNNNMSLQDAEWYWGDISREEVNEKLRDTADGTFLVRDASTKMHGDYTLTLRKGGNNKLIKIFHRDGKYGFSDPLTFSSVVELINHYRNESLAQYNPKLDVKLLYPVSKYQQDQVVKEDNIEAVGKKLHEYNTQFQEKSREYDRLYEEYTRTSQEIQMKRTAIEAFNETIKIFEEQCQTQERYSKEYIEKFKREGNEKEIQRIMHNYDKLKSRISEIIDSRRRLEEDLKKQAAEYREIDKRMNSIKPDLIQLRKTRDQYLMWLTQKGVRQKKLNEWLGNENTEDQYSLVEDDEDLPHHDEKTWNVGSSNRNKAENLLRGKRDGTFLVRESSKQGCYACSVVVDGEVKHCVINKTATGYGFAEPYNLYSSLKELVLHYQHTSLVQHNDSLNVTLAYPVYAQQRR
# Sequence (P42336 whole entry): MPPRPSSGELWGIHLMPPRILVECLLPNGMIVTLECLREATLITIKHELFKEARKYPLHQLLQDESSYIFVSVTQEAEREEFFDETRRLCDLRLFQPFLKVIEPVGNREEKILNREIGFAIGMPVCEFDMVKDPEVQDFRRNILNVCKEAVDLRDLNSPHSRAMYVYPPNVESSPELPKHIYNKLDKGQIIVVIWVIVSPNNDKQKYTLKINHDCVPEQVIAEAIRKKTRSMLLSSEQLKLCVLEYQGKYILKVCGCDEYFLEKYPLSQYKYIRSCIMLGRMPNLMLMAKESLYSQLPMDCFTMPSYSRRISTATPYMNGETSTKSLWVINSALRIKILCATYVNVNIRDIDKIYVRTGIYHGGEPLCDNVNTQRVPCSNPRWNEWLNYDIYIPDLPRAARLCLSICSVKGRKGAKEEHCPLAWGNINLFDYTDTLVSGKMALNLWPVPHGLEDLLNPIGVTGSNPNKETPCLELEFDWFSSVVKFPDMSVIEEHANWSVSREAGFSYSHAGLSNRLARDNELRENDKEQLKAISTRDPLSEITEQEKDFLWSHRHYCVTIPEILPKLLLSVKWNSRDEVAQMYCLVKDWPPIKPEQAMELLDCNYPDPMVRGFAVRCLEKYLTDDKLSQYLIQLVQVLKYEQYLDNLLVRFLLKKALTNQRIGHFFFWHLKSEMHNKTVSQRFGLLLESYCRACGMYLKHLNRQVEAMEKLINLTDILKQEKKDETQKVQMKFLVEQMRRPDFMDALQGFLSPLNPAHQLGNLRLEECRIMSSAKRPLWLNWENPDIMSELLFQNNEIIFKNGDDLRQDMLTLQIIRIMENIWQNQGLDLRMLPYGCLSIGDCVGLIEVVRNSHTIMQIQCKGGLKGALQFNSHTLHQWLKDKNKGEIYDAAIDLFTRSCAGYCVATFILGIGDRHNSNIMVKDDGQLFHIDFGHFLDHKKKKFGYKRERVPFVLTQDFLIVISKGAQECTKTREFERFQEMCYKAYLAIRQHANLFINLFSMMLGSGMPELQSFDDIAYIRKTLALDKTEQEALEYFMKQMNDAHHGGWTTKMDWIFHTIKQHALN
# ASSAY INFO: Inhibition of N-terminal His6-tagged recombinant full-length human p110alpha/untagged recombinant full length human p85alpha expressed in baculovirus infected Sf21 cells using phosphatidylinositol as substrate in presence of gamma-32P-ATP after 5 mins by thin layer chromatographic method
PROPERTY: IC50

>  <SMILES>
Cc1ccccc1-n1c(Cn2nc(-c3cc(O)cc(F)c3)c3c(N)nccc32)cc2cccc(C)c2c1=O

>  <PROPERTY>
IC50

>  <RESULT>
< 10 µM

$$$$
>  <SMILES>
Cc1cccnc1-n1c(Cn2nc(Cl)c3c(N)ncnc32)cc2cccc(C)c2c1=O

>  <PROPERTY>
IC50

>  <RESULT>
> 10 µM

$$$$
>  <SMILES>
Cc1cccnc1-n1c(Cn2nc(-c3cc(O)cc(F)c3)c3c(N)ncnc32)cc2cccc(C)c2c1=O

>  <PROPERTY>
IC50

>  <RESULT>
> 10 µM

$$$$
>  <SMILES>
COc1ccccc1-n1c(Cn2nc(C#C[C@@H](C)O)c3c(N)ncnc32)cc2cccc(C)c2c1=O

>  <PROPERTY>
IC50

>  <RESULT>
> 10 µM

$$$$
>  <SMILES>
Cc1cccnc1-n1c(Cn2nc(C#C[C@@H](C)O)c3c(N)ncnc32)cc2cccc(C)c2c1=O

>  <PROPERTY>
IC50

>  <RESULT>
> 10 µM

$$$$
>  <SMILES>
COc1ccccc1-n1c(Cn2nc(-c3cccc(O)c3)c3c(N)ncnc32)cc2cccc(C)c2c1=O

>  <PROPERTY>
IC50

>  <RESULT>
> 10 µM

$$$$

Challenge: Please report the recorded IC50 for Cc1ccccc1-n1c(Cn2nc(C#CCO)c3c(N)ncnc32)cc2cccc(C)c2c1=O .
Response given: > 10 µM

Challenge: Likewise for Cc1ccccc1-n1c(Cn2nc(-c3cccc(O)c3)c3c(N)ncnc32)cc2cccc(F)c2c1=O ?
Response given: > 10 µM

###

# TEST TARGET: PI3K p110 beta/p85 alpha (Homo sapiens)
# Sequence (P42338 whole entry, one chain of several): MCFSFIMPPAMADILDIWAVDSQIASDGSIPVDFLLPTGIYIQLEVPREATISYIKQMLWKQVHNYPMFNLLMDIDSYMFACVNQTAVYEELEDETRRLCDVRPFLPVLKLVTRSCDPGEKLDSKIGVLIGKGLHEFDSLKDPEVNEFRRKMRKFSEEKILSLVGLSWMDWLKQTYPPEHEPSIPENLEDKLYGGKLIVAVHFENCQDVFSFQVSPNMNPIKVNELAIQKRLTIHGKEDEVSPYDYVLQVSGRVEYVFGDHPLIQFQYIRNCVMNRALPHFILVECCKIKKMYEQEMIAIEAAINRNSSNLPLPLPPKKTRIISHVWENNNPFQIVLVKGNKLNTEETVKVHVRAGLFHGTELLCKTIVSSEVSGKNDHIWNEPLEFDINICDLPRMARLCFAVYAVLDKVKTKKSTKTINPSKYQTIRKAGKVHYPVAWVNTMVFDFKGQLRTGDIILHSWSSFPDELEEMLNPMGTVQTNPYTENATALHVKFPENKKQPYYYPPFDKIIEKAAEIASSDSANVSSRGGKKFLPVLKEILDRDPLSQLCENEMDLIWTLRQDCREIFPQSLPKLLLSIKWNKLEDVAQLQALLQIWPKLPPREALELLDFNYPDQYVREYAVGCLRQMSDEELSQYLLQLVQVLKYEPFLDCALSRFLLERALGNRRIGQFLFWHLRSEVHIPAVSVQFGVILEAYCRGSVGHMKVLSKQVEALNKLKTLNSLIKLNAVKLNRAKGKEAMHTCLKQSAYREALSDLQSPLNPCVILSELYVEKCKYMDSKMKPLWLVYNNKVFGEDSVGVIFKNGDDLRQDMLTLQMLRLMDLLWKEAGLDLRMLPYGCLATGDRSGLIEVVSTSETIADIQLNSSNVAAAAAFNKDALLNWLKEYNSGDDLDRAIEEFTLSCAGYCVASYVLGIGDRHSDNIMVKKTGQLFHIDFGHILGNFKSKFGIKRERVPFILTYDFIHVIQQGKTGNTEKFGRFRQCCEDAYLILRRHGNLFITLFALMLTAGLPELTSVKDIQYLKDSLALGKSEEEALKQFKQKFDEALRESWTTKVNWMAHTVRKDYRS
# ASSAY INFO: Inhibition of N-terminal His6-tagged recombinant full-length human p110beta/untagged recombinant full length p85alpha expressed in baculovirus infected Sf21 cells using phosphatidylinositol as substrate in presence of gamma-32P-ATP after 5 mins by thin layer chromatographic method
pIC50: −log10 of the molar value.
PROPERTY: pIC50

>  <COMPOUND>
Cc1ccccc1-n1c(Cn2nc(-c3ccc(F)cc3)c3c(N)ncnc32)cc2cccc(C)c2c1=O

>  <TEST TARGET>
PI3K p110 beta/p85 alpha (Homo sapiens)

>  <pIC50>
< 5.00

$$$$

Challenge: Please report the recorded pIC50 for Cc1cccc2cc(Cn3nc(-c4cn[nH]c4)c4c(N)ncnc43)n(-c3ccccc3Cl)c(=O)c12 .
Response given: < 5.00

Challenge: Likewise for Cc1cccc2cc(Cn3nc(I)c4c(N)ncnc43)n(-c3ccccc3OCCN3CCOCC3)c(=O)c12 ?
Response given: < 5.00

Challenge: Likewise for CCc1ccccc1-n1c(Cn2nc(-c3cccc(O)c3)c3c(N)ncnc32)cc2cccc(C)c2c1=O ?
Response given: < 5.00

Challenge: Likewise for Cc1ccccc1-n1c(Cn2nc(CCC(=O)N3CCOCC3)c3c(N)ncnc32)cc2cccc(C)c2c1=O ?
Response given: < 5.00

Challenge: Likewise for Cc1cccc2cc([C@H](C)Nc3ncnc4[nH]cc(C(N)=O)c34)n(-c3ccccc3)c(=O)c12 ?
Response given: > 7.00

Challenge: Likewise for Cc1cccc2cc(C(C)Nc3nc(N)nc4[nH]cnc34)n(-c3ccccc3)c(=O)c12 (stereo not drawn) ?
Response given: > 7.00

Challenge: Likewise for Cc1cccc2cc(Cn3nc(C#C[C@@H](C)O)c4c(N)ncnc43)n(C3CCCCC3)c(=O)c12 ?
Response given: < 5.00

Hey, just so you know, these numbers are from ChEMBL document CHEMBL3879901.
